- System: NCI-H1341 complex spheroids, percent test/control
- measurementNotes: Anticancer human tumor NCI-H1341 cell line growth inhibition [AhR];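 further: spheroids exposed to agents for seven days before readout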
- testSettings: second compound 0.316 µM; first compound 3.16 µM; stronger effect = lower value
Measured viability, T/C, listed per entry.
recordedEndpoint: viability, T/C (%)

[[record]]
compound = "COc1cccc2c1C(=O)c1c(O)c3c(c(O)c1C2=O)CC(O)(C(=O)CO)CC3OC1CC(N)C(O)C(C)O1 (stereo not drawn) + Cc1cncc(-c2nc(NCCc3c[nH]c4ccccc34)c3ncn(C(C)C)c3n2)c1"
recordedendpoint = "viability, T/C"
unitdescriptor = "%"
endpointvalue = 0.92

[[record]]
compound = "O=C(C=Cc1cccc(S(=O)(=O)Nc2ccccc2)c1)NO + CC(CO)NC(=O)c1cc(-c2ccc(Cl)cc2)nn(-c2cnn(C)c2)c1=O"
recordedendpoint = "viability, T/C"
unitdescriptor = "%"
endpointvalue = 5.91

[[record]]
compound = "CC(C)c1c(-c2ccccc2)nc2c(C#N)c[nH]n2c1=O + CC(CO)NC(=O)c1cc(-c2ccc(Cl)cc2)nn(-c2cnn(C)c2)c1=O"
recordedendpoint = "viability, T/C"
unitdescriptor = "%"
endpointvalue = 86.5


====

- Tested on: NCI-H1341 complex spheroids, percent test/control
- measurementNotes: Anticancer human tumor NCI-H1341 cell line growth inhibition [AhR];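 further: spheroids exposed to agents for seven days before readout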
- testSettings: second compound 10 µM; first compound 0.01 µM; stronger effect = lower value
Binarize viability, T/C at 20%; below is true (1), at or above is false (0).

[[record]]
compound = "Nc1ncn(C2CC(O)C(CO)O2)c(=O)n1 (stereo unspecified) + Cc1ccccc1N=Nc1ccc(NC(=O)c2ccnn2C)c(C)c1"
classname = "false (0)"

[[record]]
compound = "CC[C@@]1(O)C(=O)OCc2c1cc1n(c2=O)Cc2cc3c(CN(C)C)c(O)ccc3nc2-1 + CC(CO)NC(=O)c1cc(-c2ccc(Cl)cc2)nn(-c2cnn(C)c2)c1=O"
classname = "false (0)"

[[record]]
compound = "CC1COCCN1c1cc(-c2ccnn2C)c2ccnc(-c3ccn[nH]3)c2n1 (stereo unspecified) + Cc1cncc(-c2nc(NCCc3c[nH]c4ccccc34)c3ncn(C(C)C)c3n2)c1"
classname = "true (1)"

[[record]]
compound = "CC[C@@]1(O)C(=O)OCc2c1cc1n(c2=O)Cc2cc3c(CN(C)C)c(O)ccc3nc2-1 + Cc1cncc(-c2nc(NCCc3c[nH]c4ccccc34)c3ncn(C(C)C)c3n2)c1"
classname = "true (1)"

[[record]]
compound = "CC[C@@]1(O)C(=O)OCc2c1cc1n(c2=O)Cc2cc3c(CN(C)C)c(O)ccc3nc2-1 + Cc1ccccc1N=Nc1ccc(NC(=O)c2ccnn2C)c(C)c1"
classname = "false (0)"

[[record]]
compound = "CC1COCCN1c1cc(-c2ccnn2C)c2ccnc(-c3ccn[nH]3)c2n1 (stereo unspecified) + CC(CO)NC(=O)c1cc(-c2ccc(Cl)cc2)nn(-c2cnn(C)c2)c1=O"
classname = "false (0)"


====

Measured viability, T/C, listed per entry.
- Tested on: NCI-H1341 complex spheroids, percent test/control
- measurementNotes: Anticancer human tumor NCI-H1341 cell line growth inhibition [AhR];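 further: spheroids exposed to agents for seven days before readout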
- testSettings: second compound 0.316 µM; first compound 0.0316 µM; stronger effect = lower value
recordedEndpoint: viability, T/C (%)

[[record]]
compound = "Cn1ncnc1C1c2n[nH]c(=O)c3cc(F)cc(c23)NC1c1ccc(F)cc1 (stereo not drawn) + Cc1cncc(-c2nc(NCCc3c[nH]c4ccccc34)c3ncn(C(C)C)c3n2)c1"
endpointvalue = 66.8

[[record]]
compound = "Nc1ncn(C2CC(O)C(CO)O2)c(=O)n1 (stereo not drawn) + Cc1cncc(-c2nc(NCCc3c[nH]c4ccccc34)c3ncn(C(C)C)c3n2)c1"
endpointvalue = 78.2

[[record]]
compound = "CC1(C)CCC(CN2CCN(c3ccc(C(=O)NS(=O)(=O)c4ccc(NCC5CCOCC5)c([N+](=O)[O-])c4)c(Oc4cnc5[nH]ccc5c4)c3)CC2)=C(c2ccc(Cl)cc2)C1 + Cc1ccccc1N=Nc1ccc(NC(=O)c2ccnn2C)c(C)c1"
endpointvalue = 100


====

Measured viability, T/C, listed per entry.
- Tested on: NCI-H1341 complex spheroids, percent test/control
- measurementNotes: Anticancer human tumor NCI-H1341 cell line growth inhibition [AhR];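 further: spheroids exposed to agents for seven days before readout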
- testSettings: second compound 0.316 µM; first compound 0.0316 µM; stronger effect = lower value
recordedEndpoint: viability, T/C (%)

[[record]]
compound = "CC[C@@]1(O)C(=O)OCc2c1cc1n(c2=O)Cc2cc3c(CN(C)C)c(O)ccc3nc2-1 + CC(CO)NC(=O)c1cc(-c2ccc(Cl)cc2)nn(-c2cnn(C)c2)c1=O"
recordedendpoint = "viability, T/C"
endpointvalue = 58.3

[[record]]
compound = "CC1COCCN1c1cc(C2(S(C)(=N)=O)CC2)nc(-c2ccnc3[nH]ccc23)n1 (stereo not drawn) + Cc1ccccc1N=Nc1ccc(NC(=O)c2ccnn2C)c(C)c1"
recordedendpoint = "viability, T/C"
endpointvalue = 77.1

[[record]]
compound = "CC(C)c1c(-c2ccccc2)nc2c(C#N)c[nH]n2c1=O + Cc1ccccc1N=Nc1ccc(NC(=O)c2ccnn2C)c(C)c1"
recordedendpoint = "viability, T/C"
endpointvalue = 99


====

- System: NCI-H1341 complex spheroids, percent test/control
- measurementNotes: Anticancer human tumor NCI-H1341 cell line growth inhibition [AhR];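 further: spheroids exposed to agents for seven days before readout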
- testSettings: second compound 3.16 µM; first compound 0.0316 µM; stronger effect = lower value
Measured viability, T/C, listed per entry.
recordedEndpoint: viability, T/C (%)

[[record]]
molecule = "Nc1ccn(C2OC(CO)C(O)C2(F)F)c(=O)n1 (stereo not given) + Cc1cncc(-c2nc(NCCc3c[nH]c4ccccc34)c3ncn(C(C)C)c3n2)c1"
endpointvalue = 32.8

[[record]]
molecule = "COc1ccc([C@@H](O)c2cc(-c3ncnc4cc(N5CCOCC5)ccc34)c(F)cc2Cl)nn1 + Cc1ccccc1N=Nc1ccc(NC(=O)c2ccnn2C)c(C)c1"
endpointvalue = 73

[[record]]
molecule = "Nc1ccccc1NC(=O)c1ccc(CNC(=O)OCc2cccnc2)cc1 + Cc1cncc(-c2nc(NCCc3c[nH]c4ccccc34)c3ncn(C(C)C)c3n2)c1"
endpointvalue = 55.3

[[record]]
molecule = "COc1cc(C2c3cc4c(cc3C(OC3OC5COC(C)OC5C(O)C3O)C3COC(=O)C23)OCO4)cc(OC)c1O (stereo not given) + Cc1cncc(-c2nc(NCCc3c[nH]c4ccccc34)c3ncn(C(C)C)c3n2)c1"
endpointvalue = 76.1

[[record]]
molecule = "CC1(C)CCC(CN2CCN(c3ccc(C(=O)NS(=O)(=O)c4ccc(NCC5CCOCC5)c([N+](=O)[O-])c4)c(Oc4cnc5[nH]ccc5c4)c3)CC2)=C(c2ccc(Cl)cc2)C1 + CC(CO)NC(=O)c1cc(-c2ccc(Cl)cc2)nn(-c2cnn(C)c2)c1=O"
endpointvalue = 76.5


====

Measured IC50, listed per entry.
- Test system: NCI-H1341 complex spheroids, percent test/control
- measurementNotes: Anticancer human tumor NCI-H1341 cell line growth inhibition [AhR];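 further: spheroids exposed to agents for seven days before readout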
- testSettings: curve of first compound; second compound 1 µM
recordedEndpoint: IC50 (nM)

[[record]]
compound = "COc1cc(Nc2ncc3c(n2)-c2ccc(Cl)cc2C(c2c(F)cccc2OC)=NC3)ccc1C(=O)O + CC(CO)NC(=O)c1cc(-c2ccc(Cl)cc2)nn(-c2cnn(C)c2)c1=O"
recordedendpoint = "IC50"
unitdescriptor = "nM"
readoutrelation = "<"
endpointvalue = 31.6

[[record]]
compound = "COc1cc(C2c3cc4c(cc3C(OC3OC5COC(C)OC5C(O)C3O)C3COC(=O)C23)OCO4)cc(OC)c1O (stereo unspecified) + Cc1ccccc1N=Nc1ccc(NC(=O)c2ccnn2C)c(C)c1"
recordedendpoint = "IC50"
unitdescriptor = "nM"
readoutrelation = "="
endpointvalue = 725

[[record]]
compound = "Nc1ccccc1NC(=O)c1ccc(CNC(=O)OCc2cccnc2)cc1 + Cc1ccccc1N=Nc1ccc(NC(=O)c2ccnn2C)c(C)c1"
recordedendpoint = "IC50"
unitdescriptor = "nM"
readoutrelation = "="
endpointvalue = 596

[[record]]
compound = "CC[C@@]1(O)C(=O)OCc2c1cc1n(c2=O)Cc2cc3c(CN(C)C)c(O)ccc3nc2-1 + Cc1cncc(-c2nc(NCCc3c[nH]c4ccccc34)c3ncn(C(C)C)c3n2)c1"
recordedendpoint = "IC50"
unitdescriptor = "nM"
readoutrelation = "="
endpointvalue = 18.7

[[record]]
compound = "CCc1c2c(nc3ccc(O)cc13)-c1cc3c(c(=O)n1C2)COC(=O)[C@]3(O)CC + Cc1cncc(-c2nc(NCCc3c[nH]c4ccccc34)c3ncn(C(C)C)c3n2)c1"
recordedendpoint = "IC50"
unitdescriptor = "nM"
readoutrelation = "<"
endpointvalue = 0.949

[[record]]
compound = "O=C(c1cc(Cc2n[nH]c(=O)c3ccccc23)ccc1F)N1CCN(C(=O)C2CC2)CC1 + Cc1cncc(-c2nc(NCCc3c[nH]c4ccccc34)c3ncn(C(C)C)c3n2)c1"
recordedendpoint = "IC50"
unitdescriptor = "nM"
readoutrelation = ">"
endpointvalue = 10000

